# method_notes: Plasma concentrations of TQS-168 and TQS-621 after single oral dose 50 mg/kg in mice, three formulations
# Format: in vivo
# measurement_context: male, C57BL/6, mouse, plasma, po, 50 mg/kg, mice plasma, TQS-168 50 mg/kg p.o., Group 2 (solution, PEG400/Kleptose/water), mean

- structure_string: "CC(C)(C)c1ccc(-c2nc3cc(O)ccc3[nH]2)cc1"
  AUC(0-inf) (ng·h/mL): 2960
- structure_string: "CC(C)(C)c1ccc(-c2nc3ccccc3[nH]2)cc1"
  AUC(0-inf) (ng·h/mL): 11400

* * *

# method_notes: Plasma and brain concentrations after single oral dose in rats
# Format: in vivo
# measurement_context: both sexes, Sprague-Dawley, rat; rats plasma, 50 mg/kg single oral dose, suspension
# Experimental: Both male (n=3) and female (n=3) Sprague-Dawley rats were administered a single dose of TQS-168 by oral gavage at 50, 150, or 500 mg/kg of TQS-168. TQS-168 was prepared as a suspension with 0.5% methylcellulose in PBS. […] Cmax and AUC0-t values from the plasma tissues were calculated using PKSolver (Compute Methods Programs Biomed. 2010 September; 99(3):306-14. doi: 10.1016j.cmpb.2010.01.007. Epub 2010 Feb. 21) with the underlying data plotted FIG. 12a.

- compound: "CC(C)(C)c1ccc(-c2nc3ccccc3[nH]2)cc1 [TQS-168, 2-(4-tert-butylphenyl)-1H-benzimidazole]"
  units_symbol: "ng/mL"
  Cmax: 60

* * *

# method_notes: Tissue concentrations (plasma, brain, liver) after single oral dose 25 mg/kg in mice
# Type: in vivo
# measurement_context: male, C57BL6/J, mouse, plasma, po, 25 mg/kg, 25 mg/kg p.o., 15.0 minutes, average, read-out: concentration in plasma

- structure_string: "CC(C)(C)c1ccc(-c2nc3ccccc3[nH]2)cc1"
  concentration at 15 min, ng/mL: 16.2

* * *

# method_notes: clinical
# measurement_context: male, human, in vivo, po, 540 mg, AUC(0-last)

- molecule: "CC(C)(C)c1ccc(-c2nc3cc(O)ccc3[nH]2)cc1 [TQS-621]"
  AUC(0-t) [ng·h/mL]: 12000

* * *

# method_notes: Phase 1 single ascending dose (SAD) trial, plasma pharmacokinetics (Part 1)
# measurement_context: male, human, in vivo, po, 60 mg, T1/2, human plasma; Regimen A: 60 mg TQS-168 MC oral suspension, fasted, single dose; geometric mean

- compound: "CC(C)(C)c1ccc(-c2nc3ccccc3[nH]2)cc1 [TQS-168, 2-(4-tert-butylphenyl)-1H-benzimidazole]"
  half-life (h): 3.06

* * *

# method_notes: Plasma concentrations of TQS-168 and TQS-621 after single oral dose 50 mg/kg in mice, three formulations
# Type: in vivo
# measurement_context: male, C57BL/6, mouse, plasma, po, 50 mg/kg, mice, 50 mg/kg p.o., Group 2 (solution, PEG 400/Kleptose/water), 0.25 hr, individual mouse; read-out: Calculated Concentration in plasma
parameter_measured: concentration at 0.25 h (ng/mL)

- structure_string: "CC(C)(C)c1ccc(-c2nc3ccccc3[nH]2)cc1"
  reported_value: 656

* * *

# method_notes: Plasma and brain concentrations after single oral dose in rats
# Type: in vivo
# measurement_context: both sexes, Sprague-Dawley, rat, plasma, po, 50 mg/kg, rats plasma, 50 mg/kg single oral dose, suspension

- structure_string: "CC(C)(C)c1ccc(-c2nc3ccccc3[nH]2)cc1"
  AUC(0-t), ng·h/mL: 833

The measurements presented in this section are drawn from patent US20250281462A1.
